// reported GI50 per item
System: SNB-19
Test: NCI tumour cell line growth inhibition, 48 h
Activity calls are given as the source filed them. Cut-off read from the data, not from the text of the source: active = GI50 up to about 1.1 µM and inactive = higher.

Study these solved cases before continuing.
> print(dat)
                                   compound  measured.on        readout.value
1  CCOC(=O)C1CCC(=O)N1C(=O)c1ccc(Cl)cc1 (stereo unspecified)       SNB-19  > 100 µM (inactive)
2  CC1(C)C2CC(=O)C1(C)C(OCc1ccccc1)C2 (stereo unspecified)       SNB-19   88.3 µM (inactive)
3           Cn1c(=O)cc(NCCc2ccccc2)[nH]c1=O       SNB-19   77.8 µM (inactive)
4  OC(CCN1CCN(CCOC(c2ccc(F)cc2)c2ccc(F)cc2)CC1)c1ccccc1 (stereo unspecified)       SNB-19   16.9 µM (inactive)
5  OC1=C2c3ccccc3NC2Oc2cc(F)ccc21 (stereo unspecified)       SNB-19   20.3 µM (inactive)

Now, please, on to the next compound.
Asked: // returns reported GI50 for input "CC(=C/c1ccccc1)/C=C1/NC(=S)N(/C=C2\C(=O)Oc3ccccc3C2=O)C1=O"
Given back: 65.6 µM (inactive)

* * *

Test system: UACC-62
Assay: NCI tumour cell line growth inhibition, 48 h
Calls of active or inactive are those of the source. Cut-off read from the data, not from the text of the source: active = GI50 up to about 1.1 µM and inactive = higher.
Entries and their measured GI50 follow.

> print(dat)
                                   compound  readout.label        readout.value
1  Cc1ccc2c(c1)C(O)(c1ccccc1)CCS2 (configuration not stated)           GI50   22.4 µM (inactive)
2  Cc1cc(O)c(C(C)C)cc1NC(=O)Nc1cccc2ccccc12           GI50     13 µM (inactive)
3               COCCOCOc1ccc(OCc2ccccc2)cc1           GI50  > 100 µM (inactive)
4                  CNC(=O)CCNC(=O)CCC(=O)OC           GI50  > 100 µM (inactive)

Asked: # get_value(readout= GI50, system= UACC-62) for "CN(C)CCNC(=O)c1cccc2c1nc(-c1ccc(F)cc1)c1ccccc12"
Given back: 3.09 µM (inactive)

Asked: Give UACC-62 GI50 for OC1CN(OC/C=C/c2ccccc2)CC(O)C1O (configuration not stated)
Given back: > 100 µM (inactive)

Asked: Item "CC(C)C(=O)C(C)(C)CCc1ccccn1" with UACC-62 - GI50?
Given back: > 100 µM (inactive)

* * *

Test system: NCI-H460
Test: NCI tumour cell line growth inhibition, 48 h
Activity calls are given as the source filed them. No stated cut-off is given here; in the data, active = GI50 up to about 1.1 µM and inactive = higher.
I would appreciate it if you answered using one of these outcomes: 1 (active), 0 (inactive)

Previously resolved entries follow.
compound	cat
CCCCCNC(=O)c1cc2cc(CCl)ccc2oc1=O	0
Nc1nc2[nH]cc(CCc3ccc(C(=O)N[C@@H](CCC(=O)O)C(=O)O)cc3)c2c(=O)[nH]1	1
O=C(Cc1ccccc1)NN1C(=O)C(Cl)C1c1cccc(O)c1 (configuration not stated)	0
CC[C@]12C=CCN3CCC4(c5cc([C@@]6(C(=O)OC)CC7CN(CCc8c6[nH]c6ccccc86)C[C@@H]6CCCC[C@H]76)c(OC)cc5N(C)C4[C@](O)(C(=O)OC)C1OC(C)=O)[C@@H]32 (some centres not stated)	1
CN(C)C(n1cc2c(c1)-c1ccc(Cl)cc1C(c1ccccc1F)=NC2)n1cc2c(c1)-c1ccc(Cl)cc1C(c1ccccc1F)=NC2	0
N=c1oc2ccc3ccccc3c2cc1-c1nc(O)c2ccccc2n1	0
Cc1cc2c(=O)cc(-c3ccncc3)oc2c(C(=O)O)c1C	0
Cc1nc(N)nc(S)c1CCC(=O)O	0

Asked: Dear colleague, could you share the recorded outcome for O=C(Nc1ccn(C2CCC(COC(c3ccccc3)(c3ccccc3)c3ccccc3)O2)c(=O)n1)c1ccccc1 (configuration not stated) when you have a moment?
Given back: 0

Asked: Fill in: this test's call for O=C(O)C1CC(c2ccc(F)cc2)=Nc2ccc(F)cc2S1 (configuration not stated) is ___
Given back: 0

Asked: Returns: the outcome recorded for "O=C1c2ccccc2C(=O)c2c1nc1ccccc1c2-c1cncc(-c2c3c(nc4ccccc24)C(=O)c2ccccc2C3=O)c1" in this assay.
Given back: 0

Asked: Query: recorded result category for OC1=C2c3ccccc3NC2Oc2cc(F)ccc21 (configuration not stated) in this test
Given back: 0

Asked: State the result this test recorded for "O=C1/C(=C\c2ccc([N+](=O)[O-])cc2)N(S(=O)(=O)c2ccccc2)c2ncccc21" .
Given back: 0

* * *

This listing pairs compounds with measured GI50.
Tested on: OVCAR-4
Assay: NCI tumour cell line growth inhibition, 48 h
The source made the active and inactive calls. Rule as the data show it: active = GI50 up to about 1.1 µM and inactive = higher.

Record excerpt, results attached:
> print(dat)
                                   compound        readout.value
1        Cn1c(=O)ccc2cc(C(=O)c3ccccc3)ccc21   46.9 µM (inactive)
2               CSCC(COC(C)=O)(CSC)c1ccncc1  > 100 µM (inactive)
3   O=C(Nc1ccc2nc(-c3ccccc3)cn2c1)Oc1ccccc1   78.3 µM (inactive)
4  Clc1ccc(Nc2nnc(CNc3ccc(-c4nnc(Nc5ccc(Cl)cc5)s4)cc3)s2)cc1   27.5 µM (inactive)
5             Nc1nc(N)c2c(-c3ccccc3)ccnc2n1  > 100 µM (inactive)

Asked: Tell me the measured GI50 of "COc1cc2c(/C=C3/C(=O)Nc4ccc(Cl)cc43)c(Cl)n(Cc3ccccc3)c2cc1C" , please.
Given back: 1.95 µM (inactive)

Asked: Query: GI50; subject: "CN(CCCCN1CCCC1)CCCCN(C)C(=O)Cc1ccc(Cl)c(Cl)c1"
Given back: 17.6 µM (inactive)

Asked: Query (compound): "CCc1ccccc1NC(=O)C1=C(C)NC(C)=C(C(=O)Nc2ccccc2CC)C1c1cccc([N+](=O)[O-])c1" ; field requested: GI50
Given back: 7.85 µM (inactive)

Asked: So what does the record say about GI50 for O=S1(=O)NC2CCC3NS(=O)(=O)NC4CCC(N1)N4S(=O)(=O)N23 (stereo not given) ?
Given back: > 100 µM (inactive)

Asked: I am curious: what GI50 value has been reported for "COc1cc(Cc2ccc3c(c2C#N)N(C)c2ccccc2S3)cc(OC)c1OC" ?
Given back: > 100 µM (inactive)

* * *

Tested on: PC-3
Assay: NCI tumour cell line growth inhibition, 48 h
Activity calls are given as the source filed them. Cut-off read from the data, not from the text of the source: active = GI50 up to about 1.1 µM and inactive = higher.
readout-label: GI50

Answered cases to consult:
molecule	measured-on	GI50
CCCCCCCCCCCCc1ccsc1-c1ccc(-c2ccc(-c3sc(-c4cc(CCCCCCCCCCCC)c(-c5ccc(-c6ccc(-c7sccc7CCCCCCCCCCCC)s6)s5)s4)cc3CCCCCCCCCCCC)s2)s1	PC-3	> 100 µM (inactive)
Nc1ccccc1N/C(=C\C(=O)C(Cl)(Cl)Cl)c1ccccc1	PC-3	22.5 µM (inactive)
CC(=O)O[C@@]12CO[C@@H]1C[C@H](O)[C@@]1(C)C(=O)[C@H](O)C3=C(C)[C@@H](OC(=O)[C@H](O)[C@@H](NC(=O)OC(C)(C)C)c4ccccc4)C[C@@](O)([C@@H](OC(=O)c4ccccc4)[C@H]21)C3(C)C	PC-3	0.00578 µM (active)
CCSc1nnc(Sc2c3ccccc3nc3ccccc23)s1	PC-3	20.3 µM (inactive)
C=C1C(=O)OC2C(C)C3C=CC(=O)[C@@]3(C)C(OC(=O)/C(C)=C/C)C1[C@@H]2OC(C)=O (stereo not given in full)	PC-3	0.522 µM (active)

Asked: # query: GI50 of entry "O=C(N/C(=C/c1ccc(Cl)cc1Cl)c1nc2ccccc2s1)c1ccccc1"
Given back: 18 µM (inactive)

Asked: Which measured GI50 value corresponds to "O=C1c2ccccc2C(=O)c2c1nc1ccccc1c2-c1cncc(-c2c3c(nc4ccccc24)C(=O)c2ccccc2C3=O)c1" ?
Given back: 2.15 µM (inactive)

* * *

System: SK-MEL-28
Assay: NCI tumour cell line growth inhibition, 48 h
The source made the active and inactive calls. No stated cut-off is given here; in the data, active = GI50 up to about 1.1 µM and inactive = higher. Residues, ends and D or L forms follow the SMILES beside them. *: point of attachment. Bn = c1ccc(C*)cc1
readout-label: GI50

Example entries begin here.
> print(dat)
                                   compound        readout.value
1  CN(C)CCNc1ccc([N+](=O)[O-])c2nc3ccccc3c(N)c12   3.83 µM (inactive)
2  N#CCCOCN(CO)c1nc(N(CO)COCCC#N)nc(N(CO)COCCC#N)n1   20.7 µM (inactive)
3  N=c1oc2ccc3ccccc3c2cc1-c1nc(O)c2ccccc2n1   95.7 µM (inactive)
4          [O-][S+](c1ccc(O)cc1)c1ccc(O)cc1  > 100 µM (inactive)
5  COC(=O)C(CC(C)C)NC(=O)C(N)Cc1ccc(OCc2ccccc2)cc1 (stereo not given) (H-Tyr(Bn)-Leu-OMe; configuration not given here)   > 10 µM (inactive)

Asked: Hi! What's the reported GI50 for CCOC(=O)C1=C(C)NC2=C(C(=O)N(c3ccccc3)C2c2ccccc2)C1c1ccccc1 (stereo not given) on SK-MEL-28?
Given back: 17.7 µM (inactive)

Asked: # value lookup — system SK-MEL-28, readout GI50, item CC(C)=CC1C(C(=O)Oc2ccccc2C(C)C)C1(C)C (stereo not given)
Given back: 39.1 µM (inactive)

Asked: Observed GI50 on SK-MEL-28 for "Cc1cc(C)n2c(-c3ccccc3)c(C)cc2n1" , please.
Given back: > 100 µM (inactive)

Asked: Write down the reported GI50 of CCOP(=O)(OCC)C1CCCOC1=O (stereo not given) , test system: SK-MEL-28.
Given back: > 100 µM (inactive)

Asked: Tell me reported GI50 for CN(C)C(=O)C(F)(F)C(c1ccc(F)cc1)C1C(=O)N(C)C(=O)N(C)C1=O (stereo not given) , tested with SK-MEL-28.
Given back: > 100 µM (inactive)
